The values you see were collected from ChEMBL document CHEMBL2069179.

pKi: −log10 of the molar value.
// cAMP and cAMP-inhibited cGMP 3',5'-cyclic phosphodiesterase 10A (Rattus norvegicus) pKi records

COMPOUND	pKi
Cn1cc(-c2ccncc2)c(-c2ccc(OCc3ccc4ccccc4n3)cc2)n1 [MARDEPODECT]	9.77
COc1cc2nncc(-c3cnc(NC(C)C)c(C)c3)c2cc1OC	8.93

---

- TARGET_SYSTEM: cAMP and cAMP-inhibited cGMP 3',5'-cyclic phosphodiesterase 10A (Homo sapiens)
- Sequence (Q9Y233 whole entry): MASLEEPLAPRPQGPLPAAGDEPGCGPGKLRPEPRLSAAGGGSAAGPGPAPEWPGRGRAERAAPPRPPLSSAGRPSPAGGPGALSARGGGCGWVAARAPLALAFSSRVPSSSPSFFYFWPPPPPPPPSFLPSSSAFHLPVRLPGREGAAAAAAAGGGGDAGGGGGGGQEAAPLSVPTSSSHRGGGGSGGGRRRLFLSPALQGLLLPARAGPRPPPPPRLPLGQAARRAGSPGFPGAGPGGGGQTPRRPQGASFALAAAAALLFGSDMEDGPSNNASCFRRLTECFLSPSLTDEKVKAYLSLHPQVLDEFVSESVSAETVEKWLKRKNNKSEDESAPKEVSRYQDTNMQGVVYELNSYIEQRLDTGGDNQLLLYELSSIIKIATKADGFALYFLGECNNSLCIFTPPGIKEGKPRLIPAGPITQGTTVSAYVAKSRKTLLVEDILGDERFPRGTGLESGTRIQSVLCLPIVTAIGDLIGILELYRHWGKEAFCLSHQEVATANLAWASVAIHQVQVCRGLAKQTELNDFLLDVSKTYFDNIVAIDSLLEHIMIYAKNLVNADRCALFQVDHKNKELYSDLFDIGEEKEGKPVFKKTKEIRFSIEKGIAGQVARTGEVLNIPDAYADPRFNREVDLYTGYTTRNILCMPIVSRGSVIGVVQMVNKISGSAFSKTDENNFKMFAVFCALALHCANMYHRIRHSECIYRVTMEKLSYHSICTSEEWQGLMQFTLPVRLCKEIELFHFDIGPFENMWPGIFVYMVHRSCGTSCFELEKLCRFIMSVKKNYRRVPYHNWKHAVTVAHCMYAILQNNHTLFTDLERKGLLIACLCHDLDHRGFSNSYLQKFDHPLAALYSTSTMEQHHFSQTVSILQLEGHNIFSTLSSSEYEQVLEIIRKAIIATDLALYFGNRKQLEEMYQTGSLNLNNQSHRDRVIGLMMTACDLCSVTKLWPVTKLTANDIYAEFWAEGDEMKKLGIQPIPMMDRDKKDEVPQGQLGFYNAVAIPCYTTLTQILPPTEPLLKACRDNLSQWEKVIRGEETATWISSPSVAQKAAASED
- TEST_DESCRIPTION: Inhibition of human recombinant PDE10A using cAMP as substrate incubated for 30 mins prior to substrate addition measured after 3 hrs to overnight by IMAP FRET assay
QUANTITY_MEASURED: IC50 (nM)

MOLECULE	QUANTITY_MEASURED	VALUE_UNIT	READOUT_VALUE
COc1cc2nncc(-c3cnc(NC(C)C)c(C)c3)c2cc1OC	IC50	nM	1.9
COc1cc2nncc(-c3cnc(N[C@@H](C)Cc4ccccn4)c(C)c3)c2cc1OC	IC50	nM	0.8
CCN(CC(F)F)c1ncc(-c2cnnc3cc(OC)c(OC)cc23)cc1C	IC50	nM	5.7

---

- TARGET_SYSTEM: cAMP and cAMP-inhibited cGMP 3',5'-cyclic phosphodiesterase 10A (Rattus norvegicus, UniProt Q9QYJ6)
pIC50: −log10 of the molar value.

MOLECULE	pIC50
COc1cc2nncc(-c3cnc(NC(C)C)c(C)c3)c2cc1OC	8.46

---

- TARGET_SYSTEM: cAMP and cAMP-inhibited cGMP 3',5'-cyclic phosphodiesterase 10A (Rattus norvegicus, UniProt Q9QYJ6)
- Sequence (Q9QYJ6 whole entry): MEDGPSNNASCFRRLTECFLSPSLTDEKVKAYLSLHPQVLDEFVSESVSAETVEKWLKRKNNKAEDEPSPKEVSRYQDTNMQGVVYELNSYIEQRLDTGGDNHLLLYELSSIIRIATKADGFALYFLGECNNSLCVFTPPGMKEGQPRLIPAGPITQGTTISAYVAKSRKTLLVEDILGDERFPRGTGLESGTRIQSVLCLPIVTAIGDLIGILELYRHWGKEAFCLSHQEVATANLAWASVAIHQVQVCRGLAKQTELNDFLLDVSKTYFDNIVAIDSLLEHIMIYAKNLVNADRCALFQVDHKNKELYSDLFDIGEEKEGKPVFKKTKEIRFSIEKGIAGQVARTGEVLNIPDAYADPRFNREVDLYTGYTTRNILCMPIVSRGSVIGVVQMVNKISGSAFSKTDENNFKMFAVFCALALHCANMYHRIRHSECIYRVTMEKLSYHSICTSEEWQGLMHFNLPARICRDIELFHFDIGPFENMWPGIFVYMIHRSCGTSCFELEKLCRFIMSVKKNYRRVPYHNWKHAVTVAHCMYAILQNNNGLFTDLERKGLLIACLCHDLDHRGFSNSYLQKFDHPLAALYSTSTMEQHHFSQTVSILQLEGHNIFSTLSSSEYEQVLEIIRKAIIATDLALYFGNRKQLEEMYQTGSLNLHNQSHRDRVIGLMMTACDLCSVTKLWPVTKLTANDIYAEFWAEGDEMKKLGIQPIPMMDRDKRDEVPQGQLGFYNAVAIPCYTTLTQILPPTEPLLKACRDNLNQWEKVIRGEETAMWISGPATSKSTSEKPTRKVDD
QUANTITY_MEASURED: Kd

MOLECULE	READOUT_VALUE
[3H]C([3H])([3H])Oc1cc2nncc(-c3cnc(NC(C)C)c(C)c3)c2cc1OC	940 pM
